Sourced from patent US20170182124A1

Test name: Pharmacokinetic study in mice (i.v.)
Cond: terminal half-life, single intravenous dose of 20 mg/kg, lean C57bl mice
Experimental readout: Half-life mice (h)
One number for each entry, in h.

| Molecule | Units symbol | Half-life mice |
| --- | --- | --- |
| S{Beta-180}-[2-[2-[[2-[2-[2-[[2-[2-[2-[[(4S)-4-carboxy-4-(17-carboxyheptadecanoyl-amino)butanoyl]amino]ethoxy]ethoxy]acetyl]amino]ethoxy]ethoxy]acetyl]amino]-ethylamino]-2-oxoethyl]-Ala[Gln121,Leu168, … (protein) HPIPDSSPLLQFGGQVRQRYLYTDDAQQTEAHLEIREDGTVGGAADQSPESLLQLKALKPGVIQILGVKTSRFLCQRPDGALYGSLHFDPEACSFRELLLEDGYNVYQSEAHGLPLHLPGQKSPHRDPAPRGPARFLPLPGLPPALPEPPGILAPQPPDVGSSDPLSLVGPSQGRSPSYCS | h | 12 |

Turning now to a further record.
Task: If you can, please state the reported Half-life mice value of S{Beta-181}-[2-[2-[[2-[2-[2-[[2-[2-[2-[[(4S)-4-carboxy-4-(17-carboxyheptadecanoyl-amino)butanoyl]amino]ethoxy]ethoxy]acetyl]amino]ethoxy]ethoxy]acetyl]amino]-ethylamino]-2-oxoethyl]-Met[Cys181]FGF21 (protein) MHPIPDSSPLLQFGGQVRQRYLYTDDAQQTEAHLEIREDGTVGGAADQSPESLLQLKALKPGVIQILGVKTSRFLCQRPDGALYGSLHFDPEACSFRELLLEDGYNVYQSEAHGLPLHLPGNKSPHRDPAPRGPARFLPLPGLPPALPEPPGILAPQPPDVGSSDPLSMVGPSQGRSPSYAC .
Result: 12
